subjectOfTest: human P2X3 receptor (homomeric P2X3 channels) (Homo sapiens, UniProt P56373)
Construct: expressed in transfected cells; host or cells: HEK293 human embryonic kidney cells (HEK-hP2X3)
Sequence (P56373 1-397): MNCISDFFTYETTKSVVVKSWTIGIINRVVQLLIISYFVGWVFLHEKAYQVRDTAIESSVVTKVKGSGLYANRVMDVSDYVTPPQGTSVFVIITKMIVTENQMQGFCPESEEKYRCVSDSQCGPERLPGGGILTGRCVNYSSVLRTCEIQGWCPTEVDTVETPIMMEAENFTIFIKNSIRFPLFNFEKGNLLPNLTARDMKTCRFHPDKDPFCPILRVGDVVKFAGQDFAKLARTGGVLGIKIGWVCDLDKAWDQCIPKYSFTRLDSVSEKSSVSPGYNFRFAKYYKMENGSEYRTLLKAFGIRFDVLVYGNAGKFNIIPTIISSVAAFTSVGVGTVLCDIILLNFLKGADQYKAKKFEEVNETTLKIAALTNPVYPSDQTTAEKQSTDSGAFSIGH
assayDetails: FlexStation calcium fluorescence assay, homomeric P2X3 channels in HEK293 cells
Format: cell-based
runConditions: HEK293 cells, hP2X3; agonist 1 μM α,β-meATP; read-out: Average pIC50 P2X3 (converted)
measure: IC50 (nM)

[P] COc1cc(Oc2cnc(NC(C)(C)C)nc2N)c(C(C)C)cc1OC
[Q] COc1cc(Oc2cnc(NC3CCC3)nc2N)c(C(C)C)cc1OC
[R] COc1cc(Oc2cnc(NC3CC3)nc2N)c(C(C)C)cc1OC
q: # ascending order, key=IC50 The labels, placed in the requested order, form the answer.
a: Q, R, P
(Q: 200 nM, R: 631 nM, P: 1000 nM)

[1] COCCNc1nc(N)ncc1Oc1cc(OC)c(OC)cc1C(C)C
[2] COc1cc(C(C)C)c(Sc2cnc(N)nc2N)cc1-c1nnn[nH]1
[3] C#Cc1cc(Sc2cnc(N)nc2N)c(C(C)C)cc1OC
[4] COc1cc(C(C)C)c(Sc2cnc(N)nc2N)cc1C
q: Could you please order the items by IC50, going from the lowest number to the highest? The labels, placed in the requested order, form the answer.
a: 3, 2, 4, 1

[I] COc1cc(C(C)C)c(Sc2cnc(N)nc2N)cc1Br
[II] COc1cc(Oc2cnc(N)nc2Nc2cccnn2)c(C(C)C)cc1OC
q: Thinking about recorded IC50 values, which is higher, I or II ? Please identify the chosen entry by its label.
a: II
(II: 3160 nM, I: 200 nM)
